Source listed as PubChem BioAssay AID2314.

Experiment: Cycloheximide Counterscreen for Small Molecule Inhibitors of Shiga Toxin
Conditions: cell reporter, cycloheximide protein synthesis inhibition counterscreen
Hit rate of the full screen: of about 300,000 compounds, about 37,000 (12%) were called active. No stated cut-off is given here; in the data, active means max response mostly above about 13% (no sharp cut-off); inactive means mostly below about 14%. Many of the other results were omitted from the sample, so actives are more common in it than they were.
Possible outcomes: Yes (active), No (inactive)

>>> class_name("CCc1ccc(-c2cc(C(=O)NCc3ccco3)c3ccccc3n2)s1")
"No"
>>> class_name("Cc1cccc(N2Cc3ccccc3C2=NC(=O)c2ccc(Cl)nc2)c1")
"Yes"
>>> class_name("O=C(NCc1cccc(CNC(=O)Nc2cccc(O)c2)c1)Nc1cccc(O)c1")
"No"
>>> class_name("O=C(Nc1cccc(C(=O)N2CCCC2)c1)c1ccccc1")
"No"
>>> class_name("Cc1ccc(OS(=O)(=O)c2ccc(-c3csc(C)n3)s2)c(C)c1")
"No"
>>> class_name("N#Cc1ccc(N2Cc3ccccc3/C2=N/C(=O)Nc2ccc(Cl)cc2)cc1")
"No"
>>> class_name("Cc1ccccc1NC(=O)CCOc1ccccc1")
"Yes"
>>> class_name("Cc1ccc(C(=O)NC(=S)NCc2cccnc2)cc1")
"No"
>>> class_name("COc1ccc(CC(=O)N/N=C(\\C)c2ccccn2)cc1")
"No"
>>> class_name("COC(=O)c1c(C)oc(C)c1S(=O)(=O)Nc1ccc(C(C)C)cc1")
"No"
>>> class_name("CC(=NCc1ccco1)c1c(C(F)(F)F)[nH]n(-c2nc3ccccc3s2)c1=O")
"Yes"
>>> class_name("Cc1cc(=O)n2nc(N3CCCC(C(=O)NCc4ccc(Cl)cc4)C3)sc2n1 (configuration not stated)")
"No"
>>> class_name("C/C(=C\\C(=O)c1ccccc1)Nc1cccc(O)c1")
"Yes"
>>> class_name("CN1CCN(NC(=O)c2ccc(S(=O)(=O)N3CCCCCC3)cc2)CC1")
"No"
>>> class_name("CC1C(=O)Nc2ccc(S(=O)(=O)N3CCN(c4ccccc4F)CC3)cc2NC1=O (configuration not stated)")
"No"
>>> class_name("Nc1c(C(=O)NCc2ccccc2)sc2nc3c(cc12)C(=O)CCC3")
"No"
>>> class_name("Cn1nnc(NC(=S)NC(=O)c2ccccc2)n1")
"No"
>>> class_name("Cc1cc(/C=N/NC(=O)c2cccnc2)c(C)n1CC(C)C")
"Yes"
>>> class_name("Cc1ccc(C(c2nnnn2CS(=O)(=O)c2ccc(C)cc2)N2CCC(C)CC2)cc1 (configuration not stated)")
"No"
>>> class_name("Cc1ccc(OCC(=O)NCCCNC(=O)c2cccnc2)cc1C")
"No"
>>> class_name("O=C(NN=C1CCC(=NNC(=O)c2cccnc2)CC1)c1cccnc1")
"Yes"
>>> class_name("CN(C)CCOC1c2ccccc2-c2ccccc21")
"No"
>>> class_name("COCc1cc(C)nc2sc(C(=O)NC3CCCCC3)c(N)c12")
"No"
>>> class_name("COc1ccc(/C(N)=N/OC(=O)CCCc2ccccc2)cc1")
"Yes"
>>> class_name("CCc1nnc(NC(=O)CCC(=O)N2CCN(c3cc(C)ccc3C)CC2)s1")
"No"
>>> class_name("CNC(=O)C(=O)N/N=C/c1ccccn1")
"No"
>>> class_name("Cc1ccccc1NC(=S)NC(=O)Cc1ccc(Cl)cc1")
"No"

====

Assay: Cycloheximide Counterscreen for Small Molecule Inhibitors of Shiga Toxin; further: read at 38.3 µM for the half of the compounds with a filed dose; 0% is about no effect
Conditions: cell reporter, cycloheximide protein synthesis inhibition counterscreen
Screen size: about 300,000 compounds; about 37,000 (12%) were called active. No stated cut-off is given here; in the data, active means max response mostly above about 13% (no sharp cut-off); inactive means mostly below about 14%. Many of the other results were omitted from the sample, so actives are more common in it than they were.
Possible outcomes: active, inactive

>>> class_name("Cc1ccc(N(Cc2cc(=O)[nH]c3ccccc23)C(=O)CCl)cc1")
"inactive"
>>> class_name("CC(=O)c1ccc(NC(=S)NC(=O)CC(C)C)cc1")
"inactive"
>>> class_name("Cc1cc(C)nc(NS(=O)(=O)c2ccc(N/C=C\\C(=O)c3cccs3)cc2)n1")
"active"
>>> class_name("CCCNC(=O)CCn1nc(-c2ccccc2)c2ccccc2c1=O")
"inactive"
>>> class_name("Cc1cc(SCC(=O)NCCN2C(=O)CSC2=O)nc2ccccc12")
"inactive"
>>> class_name("CCOC(=O)C1(Cc2ccccc2C)CCCN(C(=O)CN2C(=O)CSC2=O)C1 (stereo unspecified)")
"active"

====

Test: Cycloheximide Counterscreen for Small Molecule Inhibitors of Shiga Toxin; further: read at 38.3 µM for the half of the compounds with a filed dose; 0% is about no effect
Conditions: cell reporter, cycloheximide protein synthesis inhibition counterscreen
The campaign covered roughly 300,000 compounds. About 37,000 (12%) were called active. No stated cut-off is given here; in the data, active means max response mostly above about 13% (no sharp cut-off); inactive means mostly below about 14%. Only a selection was taken, and actives are over-represented in it overall.
Possible outcomes: Yes = active, No = inactive

>>> class_name("Cc1ccc(C2SCC(=O)N2c2ccccc2)cc1 (stereo unspecified)")
"Yes"
>>> class_name("CC(C)C(=O)N1CC(=O)Nc2ccc(F)cc2C1c1ccc(F)cc1 (stereo unspecified)")
"No"
>>> class_name("COc1ccc(NC2=CC(=S)NC(C)(C)C2)cc1")
"No"
>>> class_name("CCc1cccc(CC)c1NC(=O)COc1ccccc1C(=O)c1cc(C#N)c(=O)n(C2CCCCC2)c1")
"No"
>>> class_name("Cc1ccc2oc(=O)c3cnn(CC(=O)N4CCCCCC4)c3c2c1")
"No"
>>> class_name("CCOCCc1nn2c(=O)cc(CSCC(=O)Nc3cccc(C)c3C)nc2s1")
"No"
>>> class_name("O=C(NCc1ccccc1Cl)C1CCN(c2ncnc3c2nc2n3CCCCC2)CC1")
"No"
>>> class_name("CCCC(C)C(=O)NCc1ccncc1 (stereo unspecified)")
"No"
>>> class_name("Nc1[nH][nH]c(=O)c1N=Nc1ccc2c(c1)OCO2")
"Yes"
>>> class_name("CN(C)S(=O)(=O)c1cccc(C(=O)OCC(=O)N2CCCC2=O)c1")
"No"
>>> class_name("CCS(=O)(=O)N1Cc2ccccc2CC1C(=O)Nc1ccc(OC)cc1OC (stereo unspecified)")
"No"

====

Assay: Cycloheximide Counterscreen for Small Molecule Inhibitors of Shiga Toxin; further: read at 38.3 µM for the half of the compounds with a filed dose; 0% is about no effect
Conditions: cell reporter, cycloheximide protein synthesis inhibition counterscreen
Among all 300,000 compounds or so, about 37,000 (12%) were called active. Cut-off read from the data, not from the text of the source: active = max response mostly above about 13% (no sharp cut-off); inactive = mostly below about 14%. Shown is part of a subset that was picked to be rich in actives.
Possible outcomes: active, inactive

>>> class_name("O=C(CC1NCCc2ccccc21)Nc1cccc(Cl)c1 (stereo not drawn)")
"active"
>>> class_name("Cn1c(SCC(=O)N2CCCC2)nnc1-c1cccs1")
"inactive"
>>> class_name("CC1CCN(CC(=O)Nc2nccs2)CC1")
"inactive"
>>> class_name("COc1ccccc1C(=O)Nc1ccnn1C1CCN(Cc2cnn(C)c2)CC1")
"inactive"
>>> class_name("Cc1ccnc(NC(=O)Cn2ccc([N+](=O)[O-])n2)c1")
"inactive"
>>> class_name("CCNC(=S)N(CCN(CC)CC)Cc1cc2cc3c(cc2[nH]c1=O)OCO3")
"inactive"
>>> class_name("CC(C)=CCN1CCN(CCCc2ccccc2)CC1CCO (stereo not drawn)")
"inactive"
>>> class_name("CC(Oc1ccc(F)cc1)C(=O)N1CCN(c2ncccn2)CC1 (stereo not drawn)")
"inactive"
>>> class_name("O=C(CC1C(=O)NCCN1C(=O)c1ccc([N+](=O)[O-])cc1)Nc1cccc(Cl)c1 (stereo not drawn)")
"inactive"
>>> class_name("Cc1ccc(NC(=O)Nc2ccc3oc(C)nc3c2)cc1")
"active"
>>> class_name("O=C(Nc1ccc(C(=O)O)cc1)/C(=C\\c1ccccc1)NC(=O)c1ccc(Br)cc1")
"inactive"
>>> class_name("Cc1ccc(-c2nnc(SCC(=O)N/N=C/c3cccs3)n2-c2ccc(C)cc2)cc1")
"inactive"
>>> class_name("CCc1nccn1CCC(=O)N1CCCC(N2CCN(c3ccccc3F)CC2)C1 (stereo not drawn)")
"inactive"
>>> class_name("O=C(CSc1ncccn1)NC(=O)NCc1ccccc1")
"inactive"
>>> class_name("O=C(CSCc1ccc(Cl)cc1)N1CCCCC1")
"active"
>>> class_name("O=C(C1CCC(=O)N(C2CC2)C1)N1CCN(c2ccc(Cl)cc2)CC1 (stereo not drawn)")
"inactive"
>>> class_name("Cc1nc2cc(NC(=O)NCc3ccccc3)ccc2o1")
"active"
>>> class_name("CCCCSc1nnc(-c2ccc(NC(=O)CC)cc2)n1C")
"inactive"

====

Below, each entry is listed alongside its reported max response.
Assay: Cycloheximide Counterscreen for Small Molecule Inhibitors of Shiga Toxin; further: read at 38.3 µM for the half of the compounds with a filed dose; 0% is about no effect
Conditions: cell reporter, cycloheximide protein synthesis inhibition counterscreen; stronger effect = higher value
The whole screen tested about 300,000 compounds, of which about 37,000 (12%) were called active. Only a selection was taken, and actives are over-represented in it overall.
OBSERVATION_TYPE: max response (%)

>>> result_value("Cc1c(C(=O)NCCN(C)C)oc2ccc(S(=O)(=O)N3CCCC3)cc12")
2.66
>>> result_value("CCCC(=O)Nc1ccc(C(=O)N/N=C/c2ccc[nH]2)cc1")
7.57
>>> result_value("COc1ccc(C(=O)/C=C/c2ccc(OC3CSC3)cc2)cc1")
-1.52
>>> result_value("COc1ccc2oc(C(=O)NCC(Cc3ccccc3)N(C)C)c(C)c2c1 (stereo not given)")
12
>>> result_value("CCOc1cc(C(=S)N2CCOCC2)ccc1O")
-1.42
>>> result_value("O=C1N=C2SCCN2/C1=C\\c1c(Cl)cccc1Cl")
1.23
>>> result_value("CCCCn1c(N)c(N(CCOC)C(=O)c2oc3ccc(OC)cc3c2C)c(=O)[nH]c1=O")
-2.73
>>> result_value("CCOc1cc(/C=C2\\SC(N3CCCCC3)=NC2=O)ccc1O")
36.3
>>> result_value("O=C(NCCc1ccco1)c1nn(Cc2ccccc2)c(=O)c2ccccc12")
11.7
>>> result_value("Cc1c(C(=O)NCC(c2ccco2)N2CCCC2)oc2ccc(Cl)cc12 (stereo not given)")
37.1
